# TEST SYSTEM: Ribosomal protein S6 kinase beta-1 (Homo sapiens);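 note: values are mean inhibition of p70S6K1, measured as part of the GSK PKIS panel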
# MEASUREMENT CONDITIONS: at 1 µM

- COMPOUND: "O=C1NC(=O)C(c2cccc(Cl)c2)=C1Nc1ccc(O)c(Cl)c1"
  inhibition: "0.8%"
- COMPOUND: "Cn1cc(C=C2C(=O)Nc3cccnc32)c2ccccc21"
  inhibition: "3.78%"
- COMPOUND: "CC1=C(C(=O)Nc2ccc3[nH]ncc3c2)C(c2ccc(F)cc2)NC(=O)N1 (stereo not drawn)"
  inhibition: "13.8%"
- COMPOUND: "COc1cc2ncn(-c3cc(OCc4ccccc4C(F)(F)F)c(C(N)=O)s3)c2cc1OC"
  inhibition: "3.22%"
- COMPOUND: "COc1cc(C=NNc2ncnc3c2cnn3-c2ccccc2)ccc1O"
  inhibition: "10.3%"
- COMPOUND: "CCn1c(-c2nonc2N)nc2c(C#CC(C)(C)O)nc(OC[C@@H](N)c3ccccc3)cc21"
  inhibition: "36%"
- COMPOUND: "CN(C)c1cc2c(Nc3ccc4nc(Cc5ccccc5)[nH]c4c3)ncnc2cn1"
  inhibition: "4.96%"
- COMPOUND: "CC1=C(C(=O)Nc2ccc3[nH]ncc3c2)C(c2ccc3ccccc3c2)CC(=O)N1 (stereo not drawn)"
  inhibition: "21.4%"
- COMPOUND: "O=C(Nc1n[nH]c2nc(-c3ccco3)c(Br)cc12)C1CC1"
  inhibition: "2.07%"
- COMPOUND: "COc1ccc(COc2ccc(Cc3cnc(N)nc3N)cc2OC)cc1"
  inhibition: "0.73%"
- COMPOUND: "CS(=O)(=O)CCNCc1ccc(-c2ccc3ncnc(Nc4ccc(OCc5ccccc5)c(Cl)c4)c3c2)o1"
  inhibition: "2.03%"
- COMPOUND: "COc1cc2ncn(-c3cc(O[C@H](C)c4ccccc4Cl)c(C(N)=O)s3)c2cc1OC"
  inhibition: "4.7%"
- COMPOUND: "COc1ccccc1Nc1ncc(-c2ccccc2)o1"
  inhibition: "2.44%"
- COMPOUND: "Nc1ncnc2occ(-c3ccc(NC(=O)Nc4cc(C(F)(F)F)cc(C(F)(F)F)c4)cc3)c12"
  inhibition: "65.8%"
- COMPOUND: "CC1=C(C(=O)Nc2ccc3[nH]ncc3c2)C(c2ccc(Cl)c(Cl)c2)CC(=O)N1 (stereo not drawn)"
  inhibition: "25.2%"
- COMPOUND: "O=C1Nc2ccc(C(=O)c3ccco3)cc2C1=Cc1cc(Cl)c(O)c(Cl)c1"
  inhibition: "3.14%"
- COMPOUND: "COc1ccc(-c2nn3ncccc3c2-c2ccnc(Nc3ccc(Cl)c(C(F)(F)F)c3)n2)cc1"
  inhibition: "2.22%"
- COMPOUND: "N#Cc1c(NC(=O)c2cccc3ccccc23)sc2c1CCCC2"
  inhibition: "2.63%"
- COMPOUND: "CC(C)=Cc1cccc2c1/C(=N/Nc1ccc(S(N)(=O)=O)cc1)C(=O)N2"
  inhibition: "5.23%"
- COMPOUND: "CCn1c(-c2nonc2N)nc2ccncc21"
  inhibition: "3.8%"
- COMPOUND: "[O-][S+]1CCN(Cc2ccc(-c3ccc4ncnc(Nc5ccc(OCc6ccccc6)c(F)c5)c4c3)o2)CC1"
  inhibition: "0.86%"
- COMPOUND: "COc1cc2c(cc1Nc1nc(N3CCc4ccccc43)c3cc[nH]c3n1)N(C(=O)CN(C)C)CC2"
  inhibition: "0.46%"
- COMPOUND: "NC(=O)c1ccc(-c2nc(-c3ccccn3)c(-c3ccc4c(c3)OCO4)[nH]2)cc1"
  inhibition: "2.46%"
